Test system: SNB-75 CNS
Assay: NCI tumour cell line growth inhibition, 48 h
readout.label: TGI (µM)
One number for each entry, in µM.

// worked examples, TGI included
COc1ccc(S(=O)(=O)c2nnc(S(=O)(=O)Cc3ccccc3)s2)cc1 : 31.8
O=C(Nc1ccncc1)C(=O)c1cn(S(=O)(=O)c2ccc(F)cc2)c2ccccc12 : 15.7
COc1ccc(-c2nc3ccc(-c4nc5ccc(N6CCN(c7ccccc7)CC6)cc5[nH]4)cc3[nH]2)cc1OC : 3.8

The reported value for CN=C(N=Nc1c(O)[nH]c2ccccc12)SCC(=O)c1ccc(Br)cc1 in terms of TGI is 27.5

###

Test system: MALME-3M melanoma
Test: NCI tumour cell line growth inhibition, 48 h; in the data active = GI50 below about 0.43 µM; inactive = the rest
Answer with one of the outcomes active, inactive

CO/N=C(\COc1ccc2c(c1)oc(=O)c1cc(OC)ccc12)c1ccc(OC)cc1 : inactive
O=C1C=CC(=O)c2cc3cc(CBr)ccc3cc21 : inactive
Nc1c(C(=O)Nc2ccncc2)sc2nc3c(cc12)CCCCCCCC3 : inactive
Clc1ccc2[nH]cc(-c3nnnn3-c3ccccc3)c2c1 : inactive
COc1c(OC[C@H](O)CN2CCOCC2)ccc2c3n(c(=NC(=O)c4cccnc4C)nc12)CCN3 : inactive

Next molecule, please.
How was COc1cc(-n2cc(-c3ccc(F)cc3)[nH]c2=O)cc(OC)c1OC classified in this test?
inactive

###

For each of the compounds below, state its TGI.
Tested on: UACC-257 melanoma
Experiment: NCI tumour cell line growth inhibition, 48 h

// worked examples, TGI included
N#Cc1c(N)nc2n[nH]c(N)c2c1-c1ccc(Cl)cc1 : > 100 µM
O=C(Oc1ccccn1)c1cc2cc(CCl)ccc2oc1=O : > 100 µM
CN(C)CC[PH+](c1ccccc1)c1ccccc1.CN(C)CC[PH+](c1ccccc1)c1ccccc1.[Cl-].[Pd+2] : > 100 µM
CC(O)C1(CNc2cc(Cl)nc(N)n2)CCC1 (centres undefined) : > 100 µM
O=c1cnn(C/C=C/CO)c(=O)[nH]1 : > 100 µM
CCCc1nc(NC#N)nc(C(=O)Nc2ccccc2)c1CC : > 100 µM
Cc1[nH]nc(C(F)(F)F)c1N=NN1CCOCC1 : 24.4 µM
CCOC(=O)Nc1ccc(-c2nc(-c3cccc(OCCN4CCOCC4)c3)c(-c3ccnc(Br)c3)[nH]2)cc1 : 5.24 µM

Provide each entry's TGI from the list below.
1. O=C1/C(=C/c2ccccc2S)N=C(c2ccccc2)N1c1nc2c(Cl)cc(Cl)cc2s1
2. CCOC(=O)Nc1ccc(C)c(NC(=O)OCC)c1
3. COC(=O)/C=C(\C)CC(O)/C=C(\C)CCC=C(C)C (centres undefined)
4. O=C1C(c2c(O)[nH]c3ccc(F)cc23)=Nc2ccccc21
5. Cc1c(N=Nc2ccc(Cl)cc2)c(-c2ccccc2)n(C2OC(CO)C(O)C(O)C2O)c(=S)c1C#N (centres undefined)
6. CC1OC(OC2C(O)COC(OC3C(C)OC(OC4C(OC(=O)[C@]56CCC(C)(C)C[C@@H]5C5=CCC7[C@@]8(C)C[C@H](O)[C@H](OC9OC(CO)C(O)C(O)C9O)[C@@](C)(CO)[C@@H]8CC[C@@]7(C)[C@]5(C)CC6)OCC(O)C4O)C(O)C3OC3OCC(O)(CO)C3O)C2O)C(O)C(O)C1O (some centres undefined)
7. COc1cc2c(cc1OCCCNC(=O)c1cccc3c(=O)c4ccccc4[nH]c13)N=C[C@@H]1CCCN1C2=O

1. > 100 µM
2. > 100 µM
3. > 100 µM
4. > 100 µM
5. 54 µM
6. 28.5 µM
7. 0.759 µM
